Tested on: Crotalus adamanteus
Assay: Activity of Crotalus adamanteus venom PLA2 assessed as 1-hexadecanoyl-2-(1-pyrenedecanoyl)-sn-glycero-3-phosphoglycerol hydrolysis at 0.30 uM
# Vmax per record follows
Answer format: numeric, nmol/min implied, no suffix.

Consider the following illustrative entries.
COMPOUND	UNIT ABBREVIATION	Vmax
CC(=O)c1c(O)cccc1O	nmol/min	18
Oc1cc(O)cc(O)c1	nmol/min	18
Oc1cccc(O)c1	nmol/min	18
CC(=O)c1c(O)cc(O)cc1O [2,4,6-TRIHYDROXYACETOPHENONE]	nmol/min	18.3

We now examine a further compound.
## Task Looking for the measured Vmax of "CC(=O)c1ccc(O)cc1O" , can you help?
## Result 18.2

---

Assay: Inhibition of Crotalus adamanteus venom PLA2 assessed as effect on 1-hexadecanoyl-2-(1-pyrenedecanoyl)-sn-glycero-3-phosphoglycerol hydrolysis at 0.30 uM
Threshold-based label: Ki under 30 nM gives Satisfied, Ki not under 30 nM gives Not satisfied.

## Task I wonder whether Oc1cccc(O)c1 [RESORCINOL] has Ki below 30 nM. Can you tell?
## Result Satisfied

## Task And for "CC(=O)c1ccc(O)cc1O" ?
## Result Not satisfied

## Task Record: CC(=O)c1c(O)cc(O)cc1O [2,4,6-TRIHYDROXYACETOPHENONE]
## Result Satisfied

## Task Another compound: "CC(=O)c1c(O)cccc1O"
## Result Not satisfied

## Task For Oc1cc(O)cc(O)c1 [PHLOROGLUCINOL] then?
## Result Satisfied

---

Test system: Crotalus adamanteus
Assay: Activity of Crotalus adamanteus venom PLA2 assessed as 1-hexadecanoyl-2-(1-pyrenedecanoyl)-sn-glycero-3-phosphoglycerol hydrolysis at 0.15 uM
MEASURED METRIC: Vmax (nmol/min)
Express the result in nmol/min but write the number alone.

Solved entries (count: 4):
MOLECULE	REPORTED VALUE
CC(=O)c1c(O)cccc1O	18.2
CC(=O)c1ccc(O)cc1O	18.1
CC(=O)c1c(O)cc(O)cc1O [2,4,6-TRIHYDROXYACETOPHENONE]	18
Oc1cccc(O)c1	18.1

Attention now turns to another entry.
## Task // Vmax lookup, key: "Oc1cc(O)cc(O)c1"
## Result 18.1

---

Item-by-item account of Ki
Assay: Inhibition of Crotalus adamanteus venom PLA2 assessed as effect on 1-hexadecanoyl-2-(1-pyrenedecanoyl)-sn-glycero-3-phosphoglycerol hydrolysis at 0.15 uM
Value expressed in nM; do not type the unit.

Field: example entries. Status: answers known.
MOLECULE	REPORTED VALUE
CC(=O)c1ccc(O)cc1O	33.3
CC(=O)c1c(O)cc(O)cc1O [2,4,6-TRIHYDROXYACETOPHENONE]	8.9
Oc1cccc(O)c1 [RESORCINOL]	8.83
Oc1cc(O)cc(O)c1 [PHLOROGLUCINOL]	8.77

## Task So what does the record say about Ki for "CC(=O)c1c(O)cccc1O" ?
## Result 30.1

---

Known Km of a selection of compounds
System: Crotalus adamanteus
Assay: Activity of Crotalus adamanteus venom PLA2 assessed as 1-hexadecanoyl-2-(1-pyrenedecanoyl)-sn-glycero-3-phosphoglycerol hydrolysis at 0.15 uM
Write the numeric value and follow it with the unit.

COMPOUND	REPORTED VALUE
Oc1cc(O)cc(O)c1	12.1 mM

## Task // returns reported Km for input "CC(=O)c1c(O)cccc1O"
## Result 4.25 mM

## Task And then CC(=O)c1c(O)cc(O)cc1O [2,4,6-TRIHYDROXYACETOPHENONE] , what is it?
## Result 15.1 mM

## Task Also, "CC(=O)c1ccc(O)cc1O" please.
## Result 4.03 mM

## Task Also "Oc1cccc(O)c1" ?
## Result 12.6 mM
